Numbers sourced from PubChem BioAssay (NCI).

Some compounds, each annotated with its measured TGI.
- Tested on: SN12C renal
- Assay Comment: NCI tumour cell line growth inhibition, 48 h

- CCOC(=O)c1c2c(c(O)c3ccccc3c(O)n(-c3ccc(C)cc3)c1C)C(=O)C=CC2=O: 58.9 µM

Query: Value lookup for TGI; key = Cc1cn(CC2=NCC(C)(C)CN2)c(=O)[nH]c1=O
Result: > 100 µM

Query: Value lookup for TGI; key = NC(=O)c1csc(CCCCCCc2nc(C(N)=O)cs2)n1
Result: > 100 µM

Query: Value lookup for TGI; key = CC(=O)OC1OC2C(NC(=O)OC(C)(C)C)C1CC2(OCc1ccccc1)OCc1ccccc1 (stereo not given)
Result: 75.2 µM
